biological target: isolated recombinant JAK2 kinase domain (Homo sapiens (Human)); assay: JAK2 enzyme assay (Caliper LabChip, peptide phosphorylation); settings: 25 μM ATP
Sequence (O60674 849-1124): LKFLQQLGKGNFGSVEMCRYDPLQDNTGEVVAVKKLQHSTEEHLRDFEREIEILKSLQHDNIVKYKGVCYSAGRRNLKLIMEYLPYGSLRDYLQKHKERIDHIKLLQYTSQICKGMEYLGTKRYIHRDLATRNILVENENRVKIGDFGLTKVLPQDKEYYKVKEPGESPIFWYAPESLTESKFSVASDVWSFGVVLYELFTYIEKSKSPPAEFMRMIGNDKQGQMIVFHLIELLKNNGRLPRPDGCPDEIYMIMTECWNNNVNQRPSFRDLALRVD
Assignment: determine reported Ki for the given compounds.
Write the value in nM as a bare number.

Incoming: Recall and state the measured Ki for CN(CC1Oc2ccccc2O1)C1CCN(C(=O)Cn2cc(NC(=O)c3cnn4cccnc34)c(-c3cc(Cl)ccc3OC(F)F)n2)CC1 .
Outgoing: 1.01

Incoming: Indicate the recorded Ki value for this compound: CN1CCC2CN(C(=O)Cn3cc(NC(=O)c4cnn5cccnc45)c(-c4cc(Cl)ccc4OC(F)F)n3)CCC21 (stereo not drawn)
Outgoing: 1.76

Incoming: Respond only with Ki recorded for CC(C)(C)OC(=O)N1CC[C@@H](O)[C@H](n2cc(NC(=O)c3cnn4cccnc34)c(-c3cc(Cl)ccc3OC(F)F)n2)C1 (single isomer, unassigned)
Outgoing: 2.37

----------
biological target: isolated recombinant JAK2 kinase domain (Homo sapiens (Human)); test: JAK2 enzyme assay (Caliper LabChip, peptide phosphorylation); conditions: 25 μM ATP
ASSAY METRIC: pKi
pKi field: float, defined as -log10 of concentration (mol/L).

Incoming: Under isolated recombinant JAK2 kinase domain (Homo sapiens (Human)): report pKi of CCOC(=O)[C@@H](N)CCn1cc(NC(=O)c2cnn3cccnc23)c(-c2cc(Cl)ccc2OC(F)F)n1 [Example 309] .
Outgoing: 9.33

Incoming: For isolated recombinant JAK2 kinase domain (Homo sapiens (Human)), give pKi of the listed molecule: CC(C)(O)CCN1C[C@@H]2CN(C(=O)Cn3cc(NC(=O)c4cnn5cccnc45)c(-c4cc(Cl)ccc4OC(F)F)n3)C[C@@H]2C1 [Example 50]
Outgoing: 9.13

Incoming: Fetch value of pKi on isolated recombinant JAK2 kinase domain (Homo sapiens (Human)) for CN(CC1(CC#N)CC1)C1CCN(C(=O)Cn2cc(NC(=O)c3cnn4cccnc34)c(-c3cc(Cl)ccc3OC(F)F)n2)CC1 [Example 435] .
Outgoing: 9.01

Incoming: # return pKi of O=C(Nc1cn(CC(=O)N2CCC(N(Cc3ccccc3)CC(F)(F)F)CC2)nc1-c1cc(Cl)ccc1OC(F)F)c1cnn2cccnc12 [Example 116] (system: isolated recombinant JAK2 kinase domain (Homo sapiens (Human)))
Outgoing: 8.15

Incoming: GET pKi | system: isolated recombinant JAK2 kinase domain (Homo sapiens (Human)) | item: O=C(Nc1sc(-c2ccc(CN3CC(F)(F)C3)cc2)nc1-c1cc(Cl)ccc1OC(F)F)c1cnn2cccnc12 [Example 257]
Outgoing: 8.68

Incoming: # lookup: isolated recombinant JAK2 kinase domain (Homo sapiens (Human)) pKi, key = O=C(Nc1sc(-c2ccc(CN3CC(F)C3)cc2)nc1-c1cc(Cl)ccc1OC(F)F)c1cnn2cccnc12 [Example 256]
Outgoing: 9.02

----------
test system: JAK1-dependent STAT6 phosphorylation downstream of IL-13 stimulation in TF-1 human erythroleukemia cells; assay: JAK1 pathway assay in TF-1 cells (IL-13-pSTAT6, MSD); type: cell-based; settings: Homo sapiens, TF-1, TF-1 cells, read-out: IL13-pSTAT6 EC50_TF-1
ASSAY METRIC: pEC50
Scale: pEC50 equals -log10([C]), with [C] in mol/L.

Incoming: Entry CCOC(=O)[C@@H](N)CCn1cc(NC(=O)c2cnn3cccnc23)c(-c2cc(Cl)ccc2OC(F)F)n1 needs its pEC50 filled in; supply it.
Outgoing: 7.79

Incoming: Kindly indicate its recorded pEC50. Item: CC(=O)N1CCC(CN2C[C@@H]3CN(C(=O)Cn4cc(NC(=O)c5cnn6cccnc56)c(-c5cc(Cl)ccc5OC(F)F)n4)C[C@@H]3C2)CC1
Outgoing: 6.80

Incoming: Specify measured pEC50 for CN(Cc1ccc(Cl)cc1)C1CCN(C(=O)Cn2cc(NC(=O)c3cnn4cccnc34)c(-c3cc(Cl)ccc3OC(F)F)n2)CC1 .
Outgoing: 7.83

Incoming: Note down pEC50 recorded for O=C(Nc1cn(CC(=O)N2C[C@H]3CN(CCCN4CCCC4=O)C[C@H]3C2)nc1-c1cc(Cl)ccc1OC(F)F)c1cnn2cccnc12
Outgoing: 6.56
